Record form. Attribute: Kd. Fill in for each entry.
biological target: T1, human GPC3 (human, UniProt P51654 25-563); test: SPR
T1 construct: range 25-563; soluble analyte; also called soluble human GPC3; glypican 3
T1 sequence (P51654 25-563 limits assumed): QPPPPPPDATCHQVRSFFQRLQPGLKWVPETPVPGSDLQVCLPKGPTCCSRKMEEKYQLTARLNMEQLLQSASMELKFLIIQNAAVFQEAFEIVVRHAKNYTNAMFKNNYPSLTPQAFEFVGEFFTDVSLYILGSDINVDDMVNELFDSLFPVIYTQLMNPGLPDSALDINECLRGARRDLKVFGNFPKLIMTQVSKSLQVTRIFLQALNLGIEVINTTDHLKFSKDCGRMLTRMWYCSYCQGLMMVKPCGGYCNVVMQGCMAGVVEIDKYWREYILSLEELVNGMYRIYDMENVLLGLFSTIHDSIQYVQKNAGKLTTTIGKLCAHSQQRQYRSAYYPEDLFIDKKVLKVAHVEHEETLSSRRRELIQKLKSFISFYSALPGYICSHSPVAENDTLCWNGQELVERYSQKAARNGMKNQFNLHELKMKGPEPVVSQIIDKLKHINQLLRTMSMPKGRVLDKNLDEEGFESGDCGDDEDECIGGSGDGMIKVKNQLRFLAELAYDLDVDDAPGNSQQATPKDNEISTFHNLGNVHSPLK

// known answers, use as guide
{"Binder": "GCH068-G1dh/none-Hi-Kn010G3/L0000-k0 (antibody, V domains shown, one-arm) VH: QVQLVQSGAEVKKPGASVTVSCKASGYTFTDYEMHWIRQPPGEGLEWIGAIDGKTPDTAYSEKFKGRVTLTADKSTSTAYMELSSLTSEDTAVYYCTRFYSYTYWGQGTLVTVSS VL: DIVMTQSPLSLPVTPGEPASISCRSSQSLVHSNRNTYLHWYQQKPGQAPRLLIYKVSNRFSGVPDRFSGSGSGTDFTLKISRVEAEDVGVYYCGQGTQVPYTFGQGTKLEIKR", "Kd": "6.23 nM"}
{"Binder": "GCH054-G1dh/none-Hi-Kn010G3/L0011-k0 (antibody, V domains shown, one-arm) VH: QVQLVQSGAEVKKPGASVTVSCKASGYTFTDYEMHWIRQPPGEGLEWIGAIDGETPDTAYSEKFKGRVTLTADKSTSTAYMELSSLTSEDTAVYYCTRFYSYTYWGQGTLVTVSS VL: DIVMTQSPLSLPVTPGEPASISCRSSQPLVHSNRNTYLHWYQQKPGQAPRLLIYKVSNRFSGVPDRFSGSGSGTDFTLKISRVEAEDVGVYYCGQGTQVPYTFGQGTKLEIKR", "Kd": "5.25 nM"}
{"Binder": "H0610-G1dh/none-Hi-Kn010G3/TR01L011-k0 (antibody, V domains shown, one-arm) VH: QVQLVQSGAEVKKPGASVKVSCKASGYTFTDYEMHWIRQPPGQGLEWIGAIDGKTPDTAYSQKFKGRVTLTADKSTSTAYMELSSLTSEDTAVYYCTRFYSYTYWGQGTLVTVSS VL: DIVMTQSPLSLPVTPGEPASISCQASESLVHSNRNTYLHWYQQKPGQAPRLLIYKVSNRFRGVPDRFSGSGSGTDFTLKISRVEAEDVGVYYCGQGTQVPYTFGQGTKVEIE", "Kd": "4.02 nM"}

Take each entry in turn and give its Kd.
1. GCH055-G1dh/none-Hi-Kn010G3/L0212-k0 (antibody, V domains shown, one-arm) VH: QVQLVQSGAEVKKPGASVTVSCKASGYTFTDYEMHWIRQPPGEGLEWIGAIDGETPDTAYSDKFKGRVTLTADKSTSTAYMELSSLTSEDTAVYYCTRFYSYTYWGQGTLVTVSS VL: DIVMTQSPLSLPVTPGEPASISCRPSQSPVHSNRNTYLHWYQQKPGQAPRLLIYKVSNRFSGVPDRFSGSGSGTDFTLKISRVEAEDVGVYYCYQGTQVPYTFGQGTKLEIKR
2. GCH008-G1dh/none-Hi-Kn010G3/L0000-k0 (antibody, V domains shown, one-arm) VH: QVQLVQSGAEVKKPGASVKVSCKASGYTFTDYEMHWIRQPPGQGLEWIGAIDGETPDTAYSQKFKGRVTLTADKSTSTAYMELSSLTSEDTAVYYCTRFYSYTYWGQGTLVTVSS VL: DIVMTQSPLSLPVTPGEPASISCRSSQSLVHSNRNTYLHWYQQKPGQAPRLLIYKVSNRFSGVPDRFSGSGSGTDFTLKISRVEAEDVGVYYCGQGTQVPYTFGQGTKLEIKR

OUTPUT:
1. 0.614 nM
2. 5.55 nM
